# ASSAYED TARGET: T1, Recombinant human DSG2 protein (Leinco Technologies) (human, UniProt Q14126 50-609)
# T1 construct: also called soluble DSG2; soluble recombinant DSG2
# T1 sequence: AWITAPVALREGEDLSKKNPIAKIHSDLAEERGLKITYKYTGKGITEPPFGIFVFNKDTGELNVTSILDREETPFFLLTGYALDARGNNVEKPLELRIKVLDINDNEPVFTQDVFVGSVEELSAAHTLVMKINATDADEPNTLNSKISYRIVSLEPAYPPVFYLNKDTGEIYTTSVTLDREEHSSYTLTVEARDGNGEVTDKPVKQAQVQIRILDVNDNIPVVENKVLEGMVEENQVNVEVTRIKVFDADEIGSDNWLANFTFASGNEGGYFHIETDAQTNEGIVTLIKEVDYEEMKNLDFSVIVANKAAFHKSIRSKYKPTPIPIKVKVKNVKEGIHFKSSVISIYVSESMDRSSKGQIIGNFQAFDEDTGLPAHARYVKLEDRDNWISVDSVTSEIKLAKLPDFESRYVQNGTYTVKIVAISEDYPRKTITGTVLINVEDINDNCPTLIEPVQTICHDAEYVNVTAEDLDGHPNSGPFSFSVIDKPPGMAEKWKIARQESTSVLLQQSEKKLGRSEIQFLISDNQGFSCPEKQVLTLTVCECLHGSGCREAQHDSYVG
# MEASUREMENT PROTOCOL: SPR (BIAcore 3000), DSG2 immobilised on the sensor chip, knobs injected at 2.5 to 10 µg/ml, BIAeval
Exercise: state measured koff for each of the binders provided.
Express your answer in s⁻¹, writing the number without its unit.

# input binder: Ad3 fiber knob mutant F224L without dimerization domain (ligand, range 108-319; not shown: N-terminal 6-His tag of pQE30 and linker) NKLCSKLGNGLTFDSSNSIALKNNTLWTGPKPEANCIIEYGKQNPDSKLTLILVKNGGIVNGYVTLMGASDYVNTLFKNKNVSINVELYFDATGHILPDSSSLKTDLELKYKQTADLSARGFMPSTTAYPFVLPNAGTHNENYIFGQCYYKASDGALFPLEVTVMLNKRLPDSRTSYVMTFLWSLNAGLAPETTQATLITSPFTFSYIREDD ; wanted: its koff 0.00269

# get_value(readout='koff', item= Ad3 fiber knob mutant V239D without dimerization domain (ligand, range 108-319; also called V239D/noDD; not shown: N-terminal 6-His tag of pQE30 and linker) NKLCSKLGNGLTFDSSNSIALKNNTLWTGPKPEANCIIEYGKQNPDSKLTLILVKNGGIVNGYVTLMGASDYVNTLFKNKNVSINVELYFDATGHILPDSSSLKTDLELKYKQTADFSARGFMPSTTAYPFDLPNAGTHNENYIFGQCYYKASDGALFPLEVTVMLNKRLPDSRTSYVMTFLWSLNAGLAPETTQATLITSPFTFSYIREDD ) 0.00266

Returns the measured koff for the input binder. Input: Ad3 fiber knob mutant E248G+K258E without dimerization domain (ligand, range 108-319; not shown: N-terminal 6-His tag of pQE30 and linker) NKLCSKLGNGLTFDSSNSIALKNNTLWTGPKPEANCIIEYGKQNPDSKLTLILVKNGGIVNGYVTLMGASDYVNTLFKNKNVSINVELYFDATGHILPDSSSLKTDLELKYKQTADFSARGFMPSTTAYPFVLPNAGTHNGNYIFGQCYYEASDGALFPLEVTVMLNKRLPDSRTSYVMTFLWSLNAGLAPETTQATLITSPFTFSYIREDD 0.00147

Quick one: koff for Ad3 fiber knob mutant Y250F without dimerization domain (ligand, range 108-319; also called Y250F/noDD; not shown: N-terminal 6-His tag of pQE30 and linker) NKLCSKLGNGLTFDSSNSIALKNNTLWTGPKPEANCIIEYGKQNPDSKLTLILVKNGGIVNGYVTLMGASDYVNTLFKNKNVSINVELYFDATGHILPDSSSLKTDLELKYKQTADFSARGFMPSTTAYPFVLPNAGTHNENFIFGQCYYKASDGALFPLEVTVMLNKRLPDSRTSYVMTFLWSLNAGLAPETTQATLITSPFTFSYIREDD ? 0.00264
